Reference for the values: patent US9296741B2

# ASSAY_TEXT: Mouse liver microsome stability assay
# Format: in vitro ADME
# COND: male, CD1, mouse, microsomes, pH 7.4
For each of the compounds below, state its half-life at 0.5 μM.
Answers are plain numbers, in min.

For every item below, please supply its half-life at 0.5 μM.
1. CCS(=O)(=O)N(CCC(F)(F)F)c1ccc(Oc2ccc(F)cc2F)c(-c2cn(C)c(=O)c3[nH]ccc23)c1
2. Cn1cc(-c2cc(S(=O)(=O)N3CCOCC3)ccc2OCC2CC2)c2cc[nH]c2c1=O

### Response
2
11

----------
For each of the molecules below, state its Ki.
# SYSTEM_TESTED: human BRD4 first bromodomain (BDI_K57-E168) (Homo sapiens (Human), UniProt O60885)
# ASSAY_TEXT: TR-FRET bromodomain binding assay, BRD4 first bromodomain
Numbers only, in nM.

>  <STRUCTURE>
Cn1cc(-c2cc(S(C)(=O)=O)ccc2Oc2ccc(F)c(F)c2)c2cc[nH]c2c1=O

>  <Ki (nM)>
19.2

$$$$
>  <STRUCTURE>
Cn1cc(-c2cc(S(C)(=O)=O)ccc2Oc2ccc(F)cc2F)c2cc(C(=O)N3CCOCC3)[nH]c2c1=O

>  <Ki (nM)>
10.5

$$$$
>  <STRUCTURE>
CN(C)C(=O)Cc1ccc(OCc2ccccc2)c(-c2cn(C)c(=O)c3[nH]ccc23)c1

>  <Ki (nM)>
235

$$$$

Moving on to the next molecule.
### Prompt Sample Cn1cc(-c2cc(S(C)(=O)=O)ccc2Oc2ccc(F)cc2F)c2cc(CNc3ccccc3)[nH]c2c1=O — what was its Ki?
### Response 17.3

----------
# SYSTEM_TESTED: human BRD4 second bromodomain (BDII_E352-M457) (Homo sapiens (Human))
# ASSAY_TEXT: TR-FRET bromodomain binding assay, BRD4 second bromodomain
For each of the molecules below, state its log10(Ki).
Note: values are log10 of Ki expressed in nM.

Past entries and their recorded results:
>  <MOLECULE>
CCS(=O)(=O)c1ccc(NCC2CC2)c(-c2cn(C)c(=O)c3[nH]ccc23)c1 [Example 200]

>  <log10(Ki)>
0.04

$$$$
>  <MOLECULE>
Cn1cc(-c2cc(S(C)(=O)=O)ccc2OC2CCOC2)c2cc[nH]c2c1=O (centres unmarked) [Example 205]

>  <log10(Ki)>
1.01

$$$$
>  <MOLECULE>
CCS(=O)(=O)Nc1ccc(Oc2ccccc2)c(-c2cn(C)c(=O)c3[nH]ccc23)c1 [Example 21]

>  <log10(Ki)>
-0.60

$$$$
>  <MOLECULE>
CN(C)Cc1cc2c(-c3cc(S(C)(=O)=O)ccc3Oc3ccc(F)cc3F)cn(C)c(=O)c2[nH]1 [Example 279]

>  <log10(Ki)>
2.12

$$$$
>  <MOLECULE>
CCOC(=O)c1cc2c(-c3cc(NS(C)(=O)=O)ccc3Oc3ccccc3)cn(C)c(=O)c2[nH]1 [Example 71]

>  <log10(Ki)>
0.08

$$$$
>  <MOLECULE>
Cn1cc(-c2cc(S(=O)(=O)C(F)(F)F)ccc2OCC2CC2)c2cc[nH]c2c1=O [Example 243]

>  <log10(Ki)>
1.58

$$$$
>  <MOLECULE>
CCS(=O)(=O)N(CCOC)c1ccc(Oc2ccc(F)cc2F)c(-c2cn(C)c(=O)c3[nH]ccc23)c1 [Example 341]

>  <log10(Ki)>
1.91

$$$$

Moving on to the next molecule.
### Prompt Sample Cn1cc(-c2cc(NS(=O)(=O)CCF)ccc2Oc2c(F)cc(F)cc2F)c2cc[nH]c2c1=O [Example 114] — what was its log10(Ki)?
### Response 2.08

----------
# SYSTEM_TESTED: human BRD4 second bromodomain (BDII_E352-M457) (Homo sapiens (Human))
# ASSAY_TEXT: TR-FRET bromodomain binding assay, BRD4 second bromodomain
ENDPOINT_LABEL: pKi
Answers are plain numbers, as −log10 of the molar value.

>  <COMPOUND>
Cn1cc(-c2cc(S(C)(=O)=O)ccc2Oc2ccc3ccncc3c2)c2cc[nH]c2c1=O

>  <pKi>
8.23

$$$$
>  <COMPOUND>
CC(=O)Nc1ccc(Oc2ccccc2)c(-c2cn(C)c(=O)c3[nH]ccc23)c1

>  <pKi>
8.24

$$$$
>  <COMPOUND>
Cn1cc(-c2ccccc2Oc2ccccc2)c2cc[nH]c2c1=O

>  <pKi>
7.39

$$$$
>  <COMPOUND>
CCS(=O)(=O)c1ccc(Oc2ccc(F)cc2F)c(-c2cn(C)c(=O)c3[nH]ccc23)c1

>  <pKi>
8.89

$$$$

For every item below, please supply its pKi.
1. Cn1cc(-c2ccccc2-c2ccccc2)c2cc[nH]c2c1=O
2. Cn1cc(-c2cc(S(C)(=O)=O)ccc2Oc2ccc3c(c2)CCC3)c2cc[nH]c2c1=O
3. COc1cc(CNC(=O)c2ccc(Oc3ccc(F)cc3F)c(-c3cn(C)c(=O)c4[nH]ccc34)c2)cc(OC)c1OC
4. Cn1cc(-c2cc(NS(C)(=O)=O)ccc2OC2CCOCC2)c2cc[nH]c2c1=O
5. Cn1cc(-c2cc(NS(C)(=O)=O)ccc2Oc2ccc(F)c(F)c2)c2cc[nH]c2c1=O
6. Cn1cc(-c2cc(C(=O)NC3CCN(C(=O)OC(C)(C)C)CC3)ccc2Oc2ccc(F)cc2F)c2cc[nH]c2c1=O
7. CC(=O)Nc1ccc(Oc2ccc(F)cc2F)c(-c2cn(C)c(=O)c3[nH]ccc23)c1

### Response
1. 6.32
2. 8.06
3. 6.76
4. 8.17
5. 8.48
6. 6.53
7. 7.97

For every item below, please supply its pKi.
1. Cn1cc(-c2cc(S(C)(=O)=O)ccc2Oc2cccc(C(F)(F)F)c2)c2cc[nH]c2c1=O
2. Cn1cc(-c2cc(S(C)(=O)=O)ccc2OCC2CCC2)c2cc[nH]c2c1=O
3. Cn1cc(-c2cc(S(C)(=O)=O)ccc2Oc2ccc3cccnc3c2)c2cc[nH]c2c1=O
4. CCS(=O)(=O)Nc1ccc(OCC2CC2)c(-c2cn(C)c(=O)c3[nH]ccc23)c1
5. Cn1cc(-c2cc(NS(C)(=O)=O)ccc2Oc2c(F)cc(F)cc2F)c2cc[nH]c2c1=O

### Response
7.66
8.47
7.74
8.25
8.82

----------
# SYSTEM_TESTED: human BRD4 first bromodomain (BDI_K57-E168) (Homo sapiens (Human))
# ASSAY_TEXT: TR-FRET bromodomain binding assay, BRD4 first bromodomain
pKi: −log10 of the molar value.
pKi vs 8: at or above is Fulfilled, below is Not fulfilled.

>  <MOLECULE>
CCS(=O)(=O)Nc1ccc(Oc2ccc(F)cc2F)c(-c2cn(C)c(=O)c3[nH]cc(CN4CCOCC4)c23)c1

>  <CATEGORY_LABEL>
Not fulfilled

$$$$
>  <MOLECULE>
CCS(=O)(=O)c1ccc(OCC2CC2)c(-c2cn(C)c(=O)c3[nH]ccc23)c1

>  <CATEGORY_LABEL>
Fulfilled

$$$$
>  <MOLECULE>
Cn1cc(-c2cc(NS(C)(=O)=O)cnc2Oc2ccccc2)c2cc[nH]c2c1=O

>  <CATEGORY_LABEL>
Fulfilled

$$$$
>  <MOLECULE>
Cn1cc(-c2cc(NS(C)(=O)=O)ccc2Oc2ccc(F)cc2Cl)c2cc[nH]c2c1=O

>  <CATEGORY_LABEL>
Fulfilled

$$$$
>  <MOLECULE>
CCS(=O)(=O)c1ccc(O[C@H]2CC[C@H](O)CC2)c(-c2cn(C)c(=O)c3[nH]ccc23)c1

>  <CATEGORY_LABEL>
Fulfilled

$$$$
>  <MOLECULE>
Cn1cc(-c2cc(NS(C)(=O)=O)ccc2OC2CCOCC2)c2cc[nH]c2c1=O

>  <CATEGORY_LABEL>
Fulfilled

$$$$
>  <MOLECULE>
CCS(=O)(=O)N(CC1CC1)c1ccc(Oc2ccc(F)cc2F)c(-c2cn(C)c(=O)c3[nH]ccc23)c1

>  <CATEGORY_LABEL>
Not fulfilled

$$$$
>  <MOLECULE>
Cn1cc(-c2cc(S(=O)(=O)NCc3cccnc3)ccc2OCC2CC2)c2cc[nH]c2c1=O

>  <CATEGORY_LABEL>
Not fulfilled

$$$$
>  <MOLECULE>
Cc1ccc(S(=O)(=O)n2ccc3c(-c4cc(NS(C)(=O)=O)ccc4Oc4ccccc4)cn(C)c(=O)c32)cc1

>  <CATEGORY_LABEL>
Not fulfilled

$$$$
>  <MOLECULE>
CCS(=O)(=O)c1ccc(OC2CCC(F)(F)CC2)c(-c2cn(C)c(=O)c3[nH]ccc23)c1

>  <CATEGORY_LABEL>
Fulfilled

$$$$

### Prompt Does Cn1cc(-c2cc(NS(C)(=O)=O)ccc2OC2CCCC2)c2cc[nH]c2c1=O have a reported pKi of at least 8?
### Response Fulfilled

### Prompt Does CCS(=O)(=O)c1ccc(OC2CCN(C)CC2)c(-c2cn(C)c(=O)c3[nH]ccc23)c1 have a reported pKi of at least 8?
### Response Not fulfilled

### Prompt Does CN(C)S(=O)(=O)c1ccc(OCC2CC2)c(-c2cn(C)c(=O)c3[nH]ccc23)c1 have a reported pKi of at least 8?
### Response Fulfilled

### Prompt Does CCS(=O)(=O)c1ccc(NCC2CC2)c(-c2cn(C)c(=O)c3[nH]ccc23)c1 have a reported pKi of at least 8?
### Response Fulfilled

### Prompt Does CCS(=O)(=O)Nc1ccc(Oc2ccccc2)c(-c2cn(C)c(=O)c3[nH]ccc23)c1 have a reported pKi of at least 8?
### Response Fulfilled

### Prompt Does Cn1cc(-c2cc(S(C)(=O)=O)ccc2OCC2CCOC2)c2cc[nH]c2c1=O (centres unmarked) have a reported pKi of at least 8?
### Response Fulfilled

### Prompt Does CN(C)S(=O)(=O)c1cnc(NCC2CC2)c(-c2cn(C)c(=O)c3[nH]ccc23)c1 have a reported pKi of at least 8?
### Response Fulfilled

### Prompt Does Cn1cc(-c2cc(C(=O)NCC3CCCO3)ccc2Oc2ccccc2)c2cc[nH]c2c1=O (centres unmarked) have a reported pKi of at least 8?
### Response Fulfilled

### Prompt Does Cn1cc(-c2ccccc2-c2ccccc2)c2cc[nH]c2c1=O have a reported pKi of at least 8?
### Response Not fulfilled

### Prompt Does CNS(=O)(=O)c1ccc(NCC2CC2)c(-c2cn(C)c(=O)c3[nH]ccc23)c1 have a reported pKi of at least 8?
### Response Fulfilled

### Prompt Does COC(=O)c1cc2c(-c3ccccc3Oc3ccccc3)cn(C)c(=O)c2[nH]1 have a reported pKi of at least 8?
### Response Not fulfilled

### Prompt Does CNS(=O)(=O)Nc1ccc(OC2CCCOC2)c(-c2cn(C)c(=O)c3[nH]ccc23)c1 (centres unmarked) have a reported pKi of at least 8?
### Response Fulfilled

### Prompt Does CN(c1ccc(Oc2ccccc2)c(-c2cn(C)c(=O)c3[nH]ccc23)c1)S(C)(=O)=O have a reported pKi of at least 8?
### Response Fulfilled

### Prompt Does CN(C)S(=O)(=O)c1cnc(Oc2ccc(F)cc2F)c(-c2cn(C)c(=O)c3[nH]ccc23)c1 have a reported pKi of at least 8?
### Response Not fulfilled

### Prompt Does Cn1cc(-c2cc(C(=O)NCc3ccc(F)c(F)c3)ccc2Oc2ccc(F)cc2F)c2cc[nH]c2c1=O have a reported pKi of at least 8?
### Response Not fulfilled
